# EXPERIMENT NOTES: AUC(0 to 24 hrs) in CD-1 mouse at 2 mg/kg,iv and measured upto 24 hrs by LC-MS analysis
# Assay type: ADME, organism-based
# Design: dose 2 mg/kg, time < 24 hrs, route iv
# MEASUREMENT CONDITIONS: in vivo
RECORDED METRIC: AUC
Dear colleague, please send the value followed by its unit.

The compound listed as Nc1nc(Cl)cc(-c2nn(C(F)F)cc2Cc2ccccc2OCCN2CCOC[C@H]2CO)n1 shows AUC equal to 0.78 µM·h

====

# EXPERIMENT NOTES: AUC(0 to 24 hrs) in CD-1 mouse at 50 mg/kg,po and measured upto 24 hrs by LC-MS analysis
# Assay type: ADME, organism-based
# Parameters: time < 24 hrs, dose 50 mg/kg, route po
# MEASUREMENT CONDITIONS: in vivo
RECORDED METRIC: AUC (µM·h)
The reply should contain only the number, in µM·h.

The molecule listed as Nc1nc(Cl)cc(-c2nn(C(F)F)cc2Cc2ccccc2OCCN2CCOC[C@H]2CO)n1 shows AUC equal to 5.46

====

# TARGET SYSTEM: Adenylate cyclase type 10 (Rattus norvegicus)
# EXPERIMENT NOTES: Inhibition of rat ADCY10 overexpressed […] assessed as IBMX stimulated cAMP accumulation preincubated for 10 mins followed by IBMX stimulation and measured after 5 mins by ELISA
Below: a set of entries, each annotated with reported IC50.
The reply should contain only the number, in nM.

>>> test_result("Nc1nc(Cl)cc(-c2nn(C(F)F)cc2Cc2ccccc2OCCN2CCNC(=O)C2)n1")
5.5
>>> test_result("Nc1nc(Cl)cc(-c2nn(C(F)F)cc2Cc2ccccc2OCCN2CCS(=O)(=O)CC2)n1")
14.6
>>> test_result("Nc1nc(Cl)cc(-c2nn(C(F)F)cc2Cc2ccccc2OCC(=O)N2CCOCC2)n1")
37.7
>>> test_result("Nc1nc(Cl)cc(-c2nn(C(F)F)cc2Cc2ccccc2OCCN2CCO[C@@H](CO)C2)n1")
34.8

The molecule listed as Nc1nc(Cl)cc(-c2nn(C(F)F)cc2Cc2ccccc2OCCN2CCO[C@H](CO)C2)n1 shows IC50 equal to 22.9

====

# EXPERIMENT NOTES: Cmax in CD-1 mouse at 50 mg/kg,po and measured upto 24 hrs by LC-MS analysis
# Type: ADME, organism-based
# Design: time < 24 hrs, dose 50 mg/kg, route po
# MEASUREMENT CONDITIONS: in vivo
RECORDED METRIC: Cmax (µM)
The reply should contain only the number, in µM.

The compound listed as Nc1nc(Cl)cc(-c2nn(C(F)F)cc2Cc2ccccc2OCCN2CCOC[C@H]2CO)n1 shows Cmax equal to 6.1

====

# EXPERIMENT NOTES: AUC(0 to 24 hrs) in CD-1 mouse at 10 mg/kg,po and measured upto 24 hrs by LC-MS analysis
# Assay type: ADME, organism-based
# Design: time < 24 hrs, dose 10 mg/kg, route po
# MEASUREMENT CONDITIONS: in vivo
RECORDED METRIC: AUC (µM·h)
The reply should contain only the number, in µM·h.

The compound listed as Nc1nc(Cl)cc(-c2nn(C(F)F)cc2Cc2ccccc2OCCN2CCOC[C@H]2CO)n1 shows AUC equal to 0.41

====

# EXPERIMENT NOTES: Cmax in CD-1 mouse at 2 mg/kg,iv and measured upto 24 hrs by LC-MS analysis
# Assay type: ADME, organism-based
# Set-up: time < 24 hrs, dose 2 mg/kg, route iv
# MEASUREMENT CONDITIONS: in vivo
RECORDED METRIC: Cmax (nM)
The reply should contain only the number, in nM.

The compound listed as Nc1nc(Cl)cc(-c2nn(C(F)F)cc2Cc2ccccc2OCCN2CCOC[C@H]2CO)n1 shows Cmax equal to 2500

====

# TARGET SYSTEM: Adenylate cyclase type 10 (Rattus norvegicus, UniProt Q9Z286)
# Sequence (Q9Z286 whole entry): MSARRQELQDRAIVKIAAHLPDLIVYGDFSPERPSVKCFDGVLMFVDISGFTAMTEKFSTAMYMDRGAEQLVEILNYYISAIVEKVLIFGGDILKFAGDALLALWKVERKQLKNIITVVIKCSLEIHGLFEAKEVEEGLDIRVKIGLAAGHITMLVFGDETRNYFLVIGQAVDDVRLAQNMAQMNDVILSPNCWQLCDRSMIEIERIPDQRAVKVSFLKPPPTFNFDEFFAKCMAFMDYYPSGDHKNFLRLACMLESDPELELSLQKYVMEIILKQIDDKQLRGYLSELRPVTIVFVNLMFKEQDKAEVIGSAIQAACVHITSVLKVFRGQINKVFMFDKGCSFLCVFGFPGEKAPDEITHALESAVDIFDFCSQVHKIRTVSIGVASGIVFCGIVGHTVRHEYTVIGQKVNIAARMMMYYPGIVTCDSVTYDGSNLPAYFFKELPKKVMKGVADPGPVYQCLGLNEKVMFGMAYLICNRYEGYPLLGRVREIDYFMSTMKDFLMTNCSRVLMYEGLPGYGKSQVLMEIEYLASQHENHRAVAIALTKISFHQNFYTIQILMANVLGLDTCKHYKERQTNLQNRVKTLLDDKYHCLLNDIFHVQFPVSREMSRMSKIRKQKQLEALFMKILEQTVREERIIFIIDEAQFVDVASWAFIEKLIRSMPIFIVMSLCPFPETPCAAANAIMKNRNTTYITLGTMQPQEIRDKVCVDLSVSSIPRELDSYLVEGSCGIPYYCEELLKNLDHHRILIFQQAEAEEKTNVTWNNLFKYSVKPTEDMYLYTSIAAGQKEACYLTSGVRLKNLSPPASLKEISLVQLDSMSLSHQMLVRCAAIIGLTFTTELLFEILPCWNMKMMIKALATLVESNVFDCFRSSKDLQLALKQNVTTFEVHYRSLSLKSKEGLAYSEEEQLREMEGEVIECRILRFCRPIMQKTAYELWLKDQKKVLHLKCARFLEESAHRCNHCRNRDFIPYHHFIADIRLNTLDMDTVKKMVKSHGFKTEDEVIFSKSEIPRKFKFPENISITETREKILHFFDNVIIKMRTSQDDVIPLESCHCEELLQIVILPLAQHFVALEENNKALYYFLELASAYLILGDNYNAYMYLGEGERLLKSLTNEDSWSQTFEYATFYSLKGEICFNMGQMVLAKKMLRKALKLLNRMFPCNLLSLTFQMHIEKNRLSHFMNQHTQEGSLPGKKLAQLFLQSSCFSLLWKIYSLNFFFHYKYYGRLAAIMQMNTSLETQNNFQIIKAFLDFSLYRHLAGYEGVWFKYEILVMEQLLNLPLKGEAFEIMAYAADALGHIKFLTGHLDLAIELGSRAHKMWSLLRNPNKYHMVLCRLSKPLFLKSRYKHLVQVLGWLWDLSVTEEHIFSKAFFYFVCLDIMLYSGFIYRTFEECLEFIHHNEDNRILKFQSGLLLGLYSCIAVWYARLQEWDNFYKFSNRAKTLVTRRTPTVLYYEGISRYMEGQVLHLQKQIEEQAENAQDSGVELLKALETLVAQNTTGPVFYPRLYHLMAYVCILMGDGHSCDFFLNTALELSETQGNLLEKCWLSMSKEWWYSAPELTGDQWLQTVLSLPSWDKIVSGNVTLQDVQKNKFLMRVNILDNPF
# EXPERIMENT NOTES: Inhibition of rat ADCY10 overexpressed […] assessed as IBMX stimulated cAMP accumulation preincubated for 10 mins followed by IBMX stimulation and measured after 5 mins by ELISA
Below: a set of entries, each annotated with reported pIC50.
Note on pIC50: it is the negative log10 of concentration, concentration in mol/L.

// known answers, use as guide
>>> test_result("CC1(O)CCN(CCOc2ccccc2Cc2cn(C(F)F)nc2-c2cc(Cl)nc(N)n2)CC1")
7.78
>>> test_result("COC(=O)[C@H]1COCCN1CCOc1ccccc1Cc1cn(C(F)F)nc1-c1cc(Cl)nc(N)n1")
8.60

Now for the molecule whose pIC50 we want.
Item: Nc1nc(Cl)cc(-c2nn(C(F)F)cc2Cc2ccccc2OCCN2CCOCC2)n1 | System: Adenylate cyclase type 10 (Rattus norvegicus, UniProt Q9Z286) | pIC50: 8.72

====

# TARGET SYSTEM: UniProtKB Q96PN6
# Sequence (Q96PN6 whole entry): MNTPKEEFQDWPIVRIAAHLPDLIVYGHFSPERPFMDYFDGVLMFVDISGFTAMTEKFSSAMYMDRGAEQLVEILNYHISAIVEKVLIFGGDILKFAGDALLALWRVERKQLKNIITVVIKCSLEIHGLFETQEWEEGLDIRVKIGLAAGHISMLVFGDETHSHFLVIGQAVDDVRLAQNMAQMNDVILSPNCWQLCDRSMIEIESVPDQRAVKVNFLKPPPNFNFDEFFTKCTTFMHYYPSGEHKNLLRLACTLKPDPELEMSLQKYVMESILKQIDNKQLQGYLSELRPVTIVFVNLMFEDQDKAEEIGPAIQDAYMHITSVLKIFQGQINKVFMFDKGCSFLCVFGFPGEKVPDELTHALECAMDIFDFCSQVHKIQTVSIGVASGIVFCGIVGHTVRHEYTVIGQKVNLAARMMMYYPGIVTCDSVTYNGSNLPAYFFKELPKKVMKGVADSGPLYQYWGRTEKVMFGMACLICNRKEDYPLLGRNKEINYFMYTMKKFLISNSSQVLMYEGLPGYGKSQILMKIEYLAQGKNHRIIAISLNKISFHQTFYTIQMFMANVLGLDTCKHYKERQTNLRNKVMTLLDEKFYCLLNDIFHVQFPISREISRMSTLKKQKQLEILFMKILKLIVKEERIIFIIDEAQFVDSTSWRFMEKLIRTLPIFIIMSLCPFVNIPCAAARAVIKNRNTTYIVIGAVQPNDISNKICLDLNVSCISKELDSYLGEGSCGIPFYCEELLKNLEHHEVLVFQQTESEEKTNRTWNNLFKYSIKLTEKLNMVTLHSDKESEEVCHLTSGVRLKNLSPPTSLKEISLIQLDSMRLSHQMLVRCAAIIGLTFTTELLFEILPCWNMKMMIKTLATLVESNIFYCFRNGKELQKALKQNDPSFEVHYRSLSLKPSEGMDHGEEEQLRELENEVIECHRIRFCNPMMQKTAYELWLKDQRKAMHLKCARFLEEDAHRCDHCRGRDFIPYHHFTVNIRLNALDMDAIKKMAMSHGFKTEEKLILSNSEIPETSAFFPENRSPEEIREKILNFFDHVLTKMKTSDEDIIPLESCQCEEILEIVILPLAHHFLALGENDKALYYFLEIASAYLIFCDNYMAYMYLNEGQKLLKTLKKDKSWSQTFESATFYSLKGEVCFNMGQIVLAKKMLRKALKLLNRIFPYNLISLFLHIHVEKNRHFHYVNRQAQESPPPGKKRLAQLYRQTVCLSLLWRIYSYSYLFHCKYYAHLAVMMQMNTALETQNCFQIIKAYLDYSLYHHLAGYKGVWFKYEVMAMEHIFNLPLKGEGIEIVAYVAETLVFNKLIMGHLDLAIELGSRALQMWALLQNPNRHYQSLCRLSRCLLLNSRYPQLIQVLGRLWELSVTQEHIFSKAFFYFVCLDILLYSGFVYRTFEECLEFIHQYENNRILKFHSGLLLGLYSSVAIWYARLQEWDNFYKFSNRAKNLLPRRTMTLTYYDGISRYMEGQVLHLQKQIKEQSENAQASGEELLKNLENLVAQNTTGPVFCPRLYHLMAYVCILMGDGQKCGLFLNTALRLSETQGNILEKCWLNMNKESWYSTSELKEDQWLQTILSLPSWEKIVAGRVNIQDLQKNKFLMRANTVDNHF
RECORDED METRIC: pKd
Note on pKd: it is the negative log10 of concentration, concentration in mol/L.

The compound listed as Nc1nc(Cl)cc(-c2nn(C(F)F)cc2Cc2ccccc2OCC(=O)N2CCOCC2)n1 shows pKd equal to 8.33

====

# TARGET SYSTEM: UniProtKB Q96PN6
pIC50: −log10 of the molar value.
Rule: pIC50 under 6 gives False, otherwise True.

>>> assigned_class("Cn1cc(Cc2cccc(Cl)c2)c(-c2cc(Cl)nc(N)n2)n1")
"True"
>>> assigned_class("Cn1cc(Cc2ccc(Cl)cc2)c(-c2cc(Cl)nc(N)n2)n1")
"False"
>>> assigned_class("CNC(=O)c1cccc(Cc2cn(C)nc2-c2cc(Cl)nc(N)n2)c1")
"False"
>>> assigned_class("COc1ccccc1Cc1cn(C)nc1-c1cc(Cl)nc(N)n1")
"True"
>>> assigned_class("Nc1nc(Cl)cc(-c2nn3ccccc3c2Cc2ccccc2)n1")
"True"
>>> assigned_class("Nc1nc(Cl)cc(-c2nn(C(F)F)cc2Cc2ccccc2OCC(=O)N2CCOCC2)n1")
"True"

Attention now shifts to the item below.
Ask | Could you verify whether the entry Cn1cc(Cc2ccccc2Cl)c(-c2cc(Cl)nc(N)n2)n1 shows pIC50 of no less than 6?
Reply | True

====

Measurement record for UniProtKB Q96PN6; quantity recorded: IC50.
Dear colleague, please send the value followed by its unit.

// known answers, use as guide
>>> test_result("Nc1nc(Cl)cc(-c2nc3ccccn3c2Cc2ccccc2)n1")
"0.716 µM"
>>> test_result("Nc1nc(Cl)cc(-c2nn(C(F)F)cc2Cc2ccccc2)n1")
"0.829 µM"

Now for the compound whose IC50 we want.
Item: CNC(=O)c1ccccc1Cc1cn(C)nc1-c1cc(Cl)nc(N)n1 | System: UniProtKB Q96PN6 | IC50: 1.24 µM
